For reference, pIC50 measured on Aurora kinase B (Homo sapiens, UniProt Q96GD4):
As a rule, pIC50 stands for the negative log10 of the concentration, concentration in M.

Examples with answers:
[[record]]
smilesrepresentation = "COC(=O)CCC(=O)Nc1cccc(-c2n[nH]c3ccc(NS(=O)(=O)c4ccccc4)cc23)c1"
number = 7.32

[[record]]
smilesrepresentation = "O=C(O)/C=C\\C(=O)Nc1cccc(-c2n[nH]c3ccc(NS(=O)(=O)c4ccccc4)cc23)c1"
number = 7.82

[[record]]
smilesrepresentation = "CCOC(=O)CCC(=O)Nc1cccc(-c2n[nH]c3ccc(NS(=O)(=O)c4ccccc4)cc23)c1"
number = 7.19

[[record]]
smilesrepresentation = "COc1ccc(S(=O)(=O)Nc2ccc3[nH]nc(-c4cccc(NC(=O)/C=C\\C(=O)O)c4)c3c2)cc1"
number = 7.51


# input for lookup
*Q* Print Aurora kinase B (Homo sapiens, UniProt Q96GD4) pIC50 for NC(=O)CCC(=O)Nc1cccc(-c2n[nH]c3ccc(NS(=O)(=O)c4ccccc4)cc23)c1 .
*A* 7.31
